# protocol_notes: Cytotoxicity assay (HepG2, CellTiter-Blue)
# Type: cell-based
# study_conditions: human, HepG2 cells, 3 days treatment
property_measured: CC50 at 3 days

In the examples that follow, each entry is paired with its recorded CC50 at 3 days.
molecule=CNc1cc(F)cc2c1[nH]c1ncc(-c3ccc4ncc(C(=O)O)c(=O)n4c3)c(C#N)c12 property_measured="CC50 at 3 days" assay_value="> 100 µM"
molecule="CNc1cc(F)cc2c1[nH]c1nc(Oc3cnc(C)nc3)nc(N3C[C@H]4C[C@@H]3C[C@H]4C)c12 [GP-6, reference compound]" property_measured="CC50 at 3 days" assay_value="5.6 µM"

Each of the following entries comes with a recorded value; kindly state CC50 at 3 days for each.
1. CNc1cc(F)cc2c1[nH]c1ncc(-c3ccc4ncc(C(=O)O)c(=O)n4c3)c(N3CCC(F)(F)C3)c12
2. CNc1c(F)c(F)cc2c1[nH]c1ncc(-c3ccc4ncc(C(=O)O)c(=O)n4c3)c(N3CCOCC3)c12

1: 31.8 µM; 2: 80.1 µM

* * *

# protocol_notes: Cytotoxicity assay (HepG2, CellTiter-Blue)
# Type: cell-based
# study_conditions: human, HepG2 cells, 3 days treatment
# Experimental: The cytotoxicity of compounds of present invention was assessed by HepG2 assay. HepG2 cells (ATCC HB-8065™) were seeded into 96-well plates (1.2×10^4 cells per well) and treated with compounds for 3 days, cell viability was measured at day 3 post compound treatment using the CellTiter-Blue® Cell Viability Assay (Promega, Cat. No. G8082). […]
Please respond with reported CC50 at 3 days for every item in the list.

See these solved cases before continuing.
molecule="CNc1cc(F)c(F)c2c1[nH]c1ncc(-c3cc(CN(C)C)c4ncc(C(=O)O)c(=O)n4c3)c(N3CCOCC3)c12 [Example 1.14]" property_measured="CC50 at 3 days" assay_value="> 100 µM"
molecule="CNc1cc(F)c(F)c2c1[nH]c1ncc(-c3ccc4ncc(C(=O)O)c(=O)n4c3)c(N3CCOCC3)c12 [Example 1.10]" property_measured="CC50 at 3 days" assay_value="> 100 µM"
molecule="CNc1cc(F)c(F)c2c1[nH]c1ncc(-c3ccc4ncc(C(=O)O)c(=O)n4c3)c(N3CCC(F)(CN(C)C)C3)c12 (stereo not shown) [Example 1.18]" property_measured="CC50 at 3 days" assay_value="> 100 µM"
molecule="CNc1cc(F)c(F)c2c1[nH]c1ncc(-c3cc(OC)c4ncc(C(=O)O)c(=O)n4c3)c(N(C)C)c12 [Example 1.03]" property_measured="CC50 at 3 days" assay_value="> 100 µM"
molecule="CNc1cc(F)c(F)c2c1[nH]c1ncc(-c3ccc4ncc(C(=O)O)c(=O)n4c3)c(N(C)CC(F)(F)F)c12 [Example 1.09]" property_measured="CC50 at 3 days" assay_value="33.5 µM"
molecule="CNc1cc(F)cc2c1[nH]c1ncc(-c3cc(C)c4ncc(C(=O)O)c(=O)n4c3)c(N(C)C)c12 [Example 1.05]" property_measured="CC50 at 3 days" assay_value="34 µM"

// next entry
Form: molecule = CNc1c(F)c(F)cc2c1[nH]c1ncc(-c3ccc4ncc(C(=O)O)c(=O)n4c3)c(N3CCC[C@H]3CN(C)C)c12 [Example 1.26] ; CC50 at 3 days = > 100 µM

* * *

For each of the compounds below, state its CC50 at 3 days.
# protocol_notes: Cytotoxicity assay (HepG2, CellTiter-Blue)
# Type: cell-based
# study_conditions: human, HepG2 cells, 3 days treatment
Numbers only, in µM.

given_smiles=CCNc1cc(F)cc2c1[nH]c1ncc(-c3ccn4c(=O)c(C(=O)O)cnc4c3)c(-n3ccc(C(F)(F)F)n3)c12 assay_value=30.8
given_smiles=CNc1cc(F)c(F)c2c1[nH]c1ncc(-c3ccc4ncc(C(=O)O)c(=O)n4c3)c(N(C)CCOC)c12 assay_value=71
given_smiles=CNc1c(F)c(F)cc2c1[nH]c1ncc(-c3ccc4ncc(C(=O)O)c(=O)n4c3)c(N(C)C)c12 assay_value=29.9

Continue with the next compound.
Measured CC50 at 3 days, `CNc1cc(F)c(F)c2c1[nH]c1ncc(-c3ccc4ncc(C(=O)O)c(=O)n4c3)c(N(C)C)c12` : 45.9

* * *

# protocol_notes: Lyophilisation solubility assay (LYSA)
# Format: physicochemical
# study_conditions: aqueous buffer, thermodynamic from solid; 0.05 M phosphate buffer, pH 6.5; * = detection limit
# Protocol: The solubility of compounds of present invention was assessed by LYSA assay. Samples were prepared in duplicate from 10 mM DMSO stock solutions (20 μL) diluted in 30 μL pure DMSO. After evaporation of DMSO with a centrifugal vacuum evaporator, the residue was dissolved in 0.05 M phosphate buffer (150 μL, pH 6.5), stirred for one hour and shook for two hours. After one night, the solution was filtered using a microtiter filter plate. Then the filtrate and its 1/10 dilution were analyzed by HPLC-UV. […]
Where solubility thermodynamic equals or exceeds 50 µg/mL, the correct label is true (1); where it does not, the label is false (0).

Some entries whose results are on file:
compound="CNc1c(F)cc(F)c2c1[nH]c1ncc(-c3ccc4ncc(C(=O)O)c(=O)n4c3)c(N(C)C)c12 [Example 1.17]" category_label="true (1)"
compound="CNc1cc(F)c(F)c2c1[nH]c1ncc(-c3ccc4ncc(C(=O)O)c(=O)n4c3)c(N3CCC(F)(CN(C)C)C3)c12 (stereo not shown) [Example 1.18]" category_label="true (1)"
compound="CNc1cc(F)c(F)c2c1[nH]c1ncc(-c3ccc4ncc(C(=O)O)c(=O)n4c3)c(N3CCOCC3)c12 [Example 1.10]" category_label="true (1)"
compound="CNc1cc(F)cc2c1[nH]c1nc(Oc3cnc(C)nc3)nc(N3C[C@H]4C[C@@H]3C[C@H]4C)c12 [GP-6, reference compound]" category_label="false (0)"
compound="CNc1cc(F)c(F)c2c1[nH]c1ncc(-c3ccc4ncc(C(=O)O)c(=O)n4c3)c(N(C)C)c12 [Example 1.01]" category_label="false (0)"
compound="CNc1cc(F)c(F)c2c1[nH]c1ncc(-c3cc(OC)c4ncc(C(=O)O)c(=O)n4c3)c(N(C)C)c12 [Example 1.03]" category_label="true (1)"

Next:
Would you say CNc1cc(F)c(F)c2c1[nH]c1ncc(-c3cc(N4CCOCC4)c4ncc(C(=O)O)c(=O)n4c3)c(N(C)C)c12 [Example 1.32] shows solubility thermodynamic at minimum 50 µg/mL?
false (0)

* * *

# protocol_notes: Lyophilisation solubility assay (LYSA)
# Assay type: physicochemical
# study_conditions: aqueous buffer, thermodynamic from solid; 0.05 M phosphate buffer, pH 6.5; * = detection limit
Please provide measured solubility thermodynamic for the entries that follow.
Give bare numbers, in µg/mL.

compound="CNc1cc(F)c(F)c2c1[nH]c1ncc(-c3cc(CN(C)CCOC)c4ncc(C(=O)O)c(=O)n4c3)c(N(C)C)c12 [Example 2.02]" assay_value=255

Batch lookup, solubility thermodynamic per entry.
1. CNc1cc(F)c(F)c2c1[nH]c1ncc(-c3ccc4ncc(C(=O)O)c(=O)n4c3)c(N3CCC(CN(C)CC(F)F)C3)c12 (stereo not drawn) [Example 1.20]
2. CNc1cc(F)c(F)c2c1[nH]c1ncc(-c3cc(CN4CCOCC4)c4ncc(C(=O)O)c(=O)n4c3)c(N(C)C)c12 [Example 2.01]

1. 165
2. 36

* * *

# protocol_notes: Lyophilisation solubility assay (LYSA)
# Assay type: physicochemical
# study_conditions: aqueous buffer, thermodynamic from solid; 0.05 M phosphate buffer, pH 6.5; * = detection limit
property_measured: solubility thermodynamic (mg/mL)
Give bare numbers, in mg/mL.

Solved entries (count: 2):
compound="CNc1cc(F)cc2c1[nH]c1ncc(-c3ccc4ncc(C(=O)O)c(=O)n4c3)c(N3CCC(CN(C)C4CC4)C3)c12 (stereo not shown)" assay_value=0.23
compound="CNc1cc(F)c(F)c2c1[nH]c1ncc(-c3ccc4ncc(C(=O)O)c(=O)n4c3)c(N3CC(CN(C)C)C(F)(F)C3)c12 (stereo not shown)" assay_value=0.065

For each entry beneath this line, provide reported solubility thermodynamic.
1. CNc1cc(F)c(F)c2c1[nH]c1ncc(-c3cc(CN4CCOCC4)c4ncc(C(=O)O)c(=O)n4c3)c(N3CCCC3)c12
2. CNc1cc(F)c(F)c2c1[nH]c1ncc(-c3cc(C)c4ncc(C(=O)O)c(=O)n4c3)c(N3CCC4CN(C)CC43)c12 (stereo not shown)
3. CNc1cc(F)c(F)c2c1[nH]c1ncc(-c3ccc4ncc(C(=O)O)c(=O)n4c3)c(N3CCC4CN(C)CC43)c12 (stereo not shown)
4. CNc1cc(F)c(F)c2c1[nH]c1ncc(-c3ccc4ncc(C(=O)O)c(=O)n4c3)c(N(C)CCOC)c12

0.091
0.275
0.06
0.022

Return reported solubility thermodynamic values for all items listed beneath this line.
1. CNc1c(F)c(F)cc2c1[nH]c1ncc(-c3ccc4ncc(C(=O)O)c(=O)n4c3)c(N3CC[C@@H](N(C)C)C3)c12
2. CNc1c(F)c(F)cc2c1[nH]c1ncc(-c3ccc4ncc(C(=O)O)c(=O)n4c3)c(N3CCOCC3)c12
3. CNc1cc(F)c(F)c2c1[nH]c1ncc(-c3cc(CN(C)C)c4ncc(C(=O)O)c(=O)n4c3)c(N3CCCC3)c12
4. CNc1cc(F)c(F)c2c1[nH]c1ncc(-c3cc(CN4CCCC4)c4ncc(C(=O)O)c(=O)n4c3)c(N(C)C)c12
5. CNc1cc(F)c(F)c2c1[nH]c1ncc(-c3cc(CN(C)C)c4ncc(C(=O)O)c(=O)n4c3)c(N3CCOCC3)c12

1: 0.031; 2: 0.162; 3: 0.019; 4: 0.051; 5: 0.315
